- Tested on: HOP-62 NSCLC
- protocol-notes: NCI tumour cell line growth inhibition, 48 h
# maps each entry to its TGI

compound	measured-target	modifier-sign	TGI / µM
COC(=O)C1(Cc2ccccc2)Cc2cc3c(cc2C1)CCC3	HOP-62 NSCLC	>	100
O=C1CSC(c2cccc([N+](=O)[O-])c2)N1c1ccc(-c2ccc(-n3c(-c4ccccc4)nc4ccccc4c3=O)cc2)cc1 (stereo not given)	HOP-62 NSCLC	>	100
COC(=O)C1CC(C(=O)OC)c2nc3cc([N+](=O)[O-])ccc3nc21 (stereo not given)	HOP-62 NSCLC	>	100
O=C(O)CCc1ccc(-c2ccccc2)[nH]1	HOP-62 NSCLC	>	100
CC(C)=CC1CC(=O)C1(C)Sc1ccccc1 (stereo not given)	HOP-62 NSCLC	>	100
O=C(Nn1cc(F)c(=O)[nH]c1=O)C12CC3CC(CC(C3)C1)C2	HOP-62 NSCLC	=	51.8
Cc1ccc(/C=C2\COc3ccc(O)c(O)c3C2=O)cc1	HOP-62 NSCLC	=	6.64
Cc1nc2ccc(Nc3nc(Cl)nc(Nc4ccc(F)cc4)n3)cc2n1Cc1ccccc1	HOP-62 NSCLC	=	30.4
CC(=O)NNc1nc(C)c(C(=O)NNC(=O)C(=O)Nc2c(C)cccc2C(C)C)s1	HOP-62 NSCLC	>	100
CC(C)=Cc1cc2c(cc1O)CCC1C2CC[C@@]2(C)C1CC[C@@H]2O (stereo not given in full)	HOP-62 NSCLC	=	31.7

The reported numbers originate from PubChem BioAssay (NCI).
